# measuredTarget: PGD2 receptor (Homo sapiens)
# Sequence (Q13258 whole entry): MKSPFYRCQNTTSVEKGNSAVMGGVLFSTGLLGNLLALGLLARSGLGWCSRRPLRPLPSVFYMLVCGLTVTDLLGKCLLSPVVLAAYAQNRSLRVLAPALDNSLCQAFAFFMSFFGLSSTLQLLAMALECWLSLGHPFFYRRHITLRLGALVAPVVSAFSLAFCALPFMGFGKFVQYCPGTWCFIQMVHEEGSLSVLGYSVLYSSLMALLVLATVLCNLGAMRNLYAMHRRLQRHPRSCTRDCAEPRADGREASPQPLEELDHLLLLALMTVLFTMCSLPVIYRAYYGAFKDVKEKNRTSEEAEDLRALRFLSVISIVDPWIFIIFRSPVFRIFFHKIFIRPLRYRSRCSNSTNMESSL
# experimentSummary: Binding activity to PGD2 receptor in human platelet membrane fraction ([3H]PGD2)
# Design: The platelets were homogenized using a homogenizer (Ultra-Turrax) followed by centrifugation 3 times at 20,000 rpm; from tissue; host or cells: human platelet membrane fraction from blood of healthy volunteers
# measurementParameters: 5 nM [3H]PGD2, 4° C., 90 min; read-out: Binding activity to PGD2 receptor in human platelet membrane fraction IC50
valueType: IC50 (nM)

A = O=C(O)CCCC=CCC1C2CCC(C2)C1NC(=O)c1ccc(Cc2ccsc2)s1 (centres unmarked)
B = CC1(C)C2CC(CC=CCCCC(=O)O)C(NC(=O)c3ccc(Sc4cccs4)s3)C1C2 (centres unmarked)
[ask] Which is greater in IC50, the first item A or the second item B ? // caller expects the label of the chosen entry
[reply] A
(A: 7.6 nM, B: 0.1 nM)

I = O=C(O)CCC/C=C\C[C@H]1[C@@H]2CC[C@@H](C2)[C@@H]1NC(=O)c1ccc(S(=O)(=O)n2cccc2)s1
II = O=C(O)CCCC=CCC1C2CCC(C2)C1NC(=O)c1csc2c(Cc3cccs3)cccc12 (centres unmarked)
[ask] Which is greater in IC50, the first item I or the second item II ? // caller expects the label of the chosen entry
[reply] I

a = CC1(C)C2CC(CC=CCCCC(=O)O)C(NC(=O)c3ccc(S(=O)(=O)c4cccs4)s3)C1C2 (centres unmarked)
b = Cc1cc(S(=O)(=O)c2ccc(C(=O)NC3C(CC=CCCCC(=O)O)CC4CC3C4(C)C)s2)cs1 (centres unmarked)
c = O=C(O)CCCC=CCC1C2CCC(C2)C1NC(=O)c1ccc(S(=O)(=O)c2cccs2)s1 (centres unmarked)
[ask] Ordering: ascending IC50. Answer format: list of labels, ordered as asked.
[reply] a, c, b
(a: 0.96 nM, c: 4.1 nM, b: 72 nM)

----------
# measuredTarget: UniProt Q13258
# experimentSummary: Antagonistic activity against PGD2 receptor using human platelet (inhibition of cAMP increase caused by PGD2)
# Type: cell-based
# measurementParameters: 0.1 μM PGD2; read-out: Inhibitory activity for the increase of cAMP caused by PGD2 in human platelet IC50
pIC50: −log10 of the molar value.
valueType: pIC50

Sample records with pIC50:
| compound | pIC50 |
| --- | --- |
| O=C(O)CCCC=CCC1C2CCC(C2)C1NC(=O)c1ccc(Cc2csc3ccccc23)s1 (centres unmarked) [Compound I-182] | 7.96 |
| CC1(C)C2CC(CC=CCCCC(=O)O)C(NC(=O)c3ccc(Sc4cccs4)s3)C1C2 (centres unmarked) [II-21] | 7.62 |
| O=C(O)CCCC=CCC1C2CCC(C2)C1NC(=O)c1csc2c(Cc3cccs3)cccc12 (centres unmarked) [Compound I-168] | 7.54 |
| Cc1ccc(Cc2ccc(C(=O)NC3C4CCC(C4)C3CC=CCCCC(=O)O)s2)s1 (centres unmarked) [Compound I-129] | 7.66 |

a = O=C(O)CCCC=CCC1C2CCC(C2)C1NC(=O)c1ccc(Sc2ccsc2)s1 (centres unmarked) [Compound I-79]
b = O=C(O)CCCC=CCC1C2CCC(C2)C1NC(=O)c1ccc(CSc2cccs2)s1 (centres unmarked) [Compound I-104]
c = O=C(O)CCCC=CCC1C2CCC(C2)C1NC(=O)c1ccc(SCc2cccs2)s1 (centres unmarked) [Compound I-106]
d = O=C(O)CCCC=CCC1C2CCC(C2)C1NC(=O)c1ccc(Sc2cccs2)s1 (centres unmarked) [Compound I-59]
[ask] Ordering: ascending pIC50. Answer format: list of labels, ordered as asked.
[reply] a, c, d, b
